TGI for assorted molecules
# System: MDA-N
# Assay Remarks: NCI tumour cell line growth inhibition, 48 h
Parameter: TGI

| Molecule | Parameter | Reading |
| --- | --- | --- |
| CCCCNC(=O)OCCN=c1c2ccccc2ccc2ccccc12 | TGI | > 100 µM |
| C[N+]1([O-])C2CCC1CC(OC(=O)C(CO)c1ccccc1)C2 (configuration not stated) | TGI | > 100 µM |
| O=P1(NCCCl)OCCCN1CCCl (configuration not stated) | TGI | > 500 µM |
| C=C1c2nc3ccccc3n2C=C(c2ccc(OC)cc2)N1c1ccc(OCCN2CCCCC2)cc1 | TGI | > 100 µM |
| O=C1c2ccccc2-c2nnc3c(c21)Cc1ccccc1C3 | TGI | > 10 µM |
| N=c1sc2ccccc2n1CCS (tested in a mixture with another compound) | TGI | > 100 µM |
| CN(Cc1cnc2nc(N)nc(N)c2n1)c1ccc(C(=O)NCCCS(=O)(=O)O)cc1 | TGI | > 100 µM |
| CCCc1nnc2sc(COc3ccc(OCc4nn5c(CCC)nnc5s4)c(Cl)c3)nn12 | TGI | 45.4 µM |
| O=C(CCC(=O)c1ccsc1)c1ccsc1 | TGI | > 100 µM |
| C=CC1(C)CCC2C(=CCC3C2(C)CC(O)C(O)C3(C)COC2OC(CO)C(O)C(O)C2O)C1 (configuration not stated) | TGI | > 100 µM |
| CN1CCN(Cn2nc(COc3ccccc3Cl)n(/N=C/c3ccc(-c4ccc(Cl)cc4Cl)o3)c2=S)CC1 | TGI | 53.8 µM |
| O=c1c2ccccc2nc(-c2cccc([N+](=O)[O-])c2)n1O | TGI | > 100 µM |
| CCC(C)N1CN(c2ccccc2)C2(CCN(CC3COc4ccccc4O3)CC2)C1=O (configuration not stated) | TGI | 64.1 µM |
| C#CCOC(=O)C(N)CC(N)=O (configuration not stated) | TGI | > 100 µM |
| C/C=C1/CC(C(=O)OC)N(C(=O)OCc2ccccc2)C1=S (configuration not stated) | TGI | > 100 µM |
| COc1cc2nc3n(c2cc1OC)C(O)c1c(Cl)nc(SC)nc1S3 (configuration not stated) | TGI | 24 µM |
| CN(C)c1cccc(-c2cc(=S)c3cc4c(cc3[nH]2)OCO4)c1 | TGI | 11.8 µM |
| COc1ccc(N2C(=O)c3cc([N+](=O)[O-])cnc3S2(=O)=O)cc1 | TGI | > 100 µM |
| Cc1cccc(Nc2nc3ccccc3nc2NS(=O)(=O)c2ccc(N)cc2)c1 | TGI | > 100 µM |
| O=C(O)C(Cc1cc(I)c(O)c(I)c1)C1CCCCC1 (configuration not stated) | TGI | > 100 µM |
| Cc1ccc(S(=O)(=O)NNC(=O)Nc2cccc(C(F)(F)F)c2)cc1 | TGI | > 100 µM |
| COc1cccc(OC)c1C1ON=C(c2ccccc2)N1C12CC3CC(CC(C3)C1)C2 (configuration not stated) | TGI | > 100 µM |

====

# Test system: HCC-2998 colon
# Assay Remarks: NCI tumour cell line growth inhibition, 48 h
Parameter: TGI (µM)

| Compound | Unit | Inequality Operator | Reading |
| --- | --- | --- | --- |
| COc1ccc2c(c1)/C(=C/c1c(O)[nH]c(=S)[nH]c1=O)C=N2 | µM | > | 100 |
| COc1cccc(OC)c1C1ON=C(c2ccccc2)N1C12CC3CC(CC(C3)C1)C2 (centres undefined) | µM | > | 100 |
| CN1CCN(Cc2ccc(NC(=O)c3cncc(C#Cc4cnc(N)c5ncccc45)c3)cc2C(F)(F)F)CC1 | µM | = | 16.7 |
| C=C(CO)C(=O)OC1CC(=C)C2CC(O)C(C)C2C2OC(=O)C(=C)C12 (centres undefined) | µM | = | 40.9 |
| CC1=C(CCCOC(=O)[C@H](N)CC(C)C)C2=C(C)C3(CC3)[C@@](C)(O)C(=O)C2=C1 | µM | = | 4.49 |
| Cc1ccc(-c2n[nH]c(=O)n2/N=C\c2ccccc2O)cc1 | µM | > | 100 |
| CNC(=O)Oc1cc(C(C)C)ccc1Sc1ccc(C(C)C)cc1OC(=O)NC | µM | = | 27.7 |
| CC(C#N)(c1ccccc1)N(CCc1ccccc1)C(=O)Oc1ccccc1 (centres undefined) | µM | > | 100 |
| CC1=C(O)C(=O)C=C2C1=CC=C1[C@@]2(C)CC[C@@]2(C)C3C[C@@H](C)C(=O)[C@@H](O)[C@]3(C)CC[C@]12C (some centres undefined) | µM | = | 9.65 |

====

GI50 reference
# System: IGROV1 ovarian
# Assay Remarks: NCI tumour cell line growth inhibition, 48 h

| Molecule | GI50 |
| --- | --- |
| CCN1CCN(CCC(=O)Nc2cccc(-n3cc(-c4ccncc4)c(-c4ccc(Cl)c(OC)c4)n3)c2)CC1 | 1.09 µM |
| CN1C(=O)C(c2c[nH]c3ccccc23)=C(c2c[nH]c3ccccc23)C1=O | 5.47 µM |
| COC(=O)c1c2c(c(C)[n+]([O-])c1C)C(=O)C(NCc1ccc(OC)cc1)=CC2=O | 1.5 µM |
| C=CCC1(O)c2ccccc2C(=O)c2c(OCC(=O)OCC)ccc(OCC(=O)OCC)c21 (centres undefined) | > 100 µM |
| COc1ccc(-c2csc3c2-n2cccc2C3=O)cc1 | 0.0229 µM |
| CNC(=O)Oc1cc(C(C)C)ccc1Sc1ccc(C(C)C)cc1OC(=O)NC | 4.98 µM |
| CC(C)=CCc1cc2c(cc1O)C1=C(C(=O)C3=C(NCCS3(=O)=O)C1=O)C(C=C(C)C)O2 (centres undefined) | 3.69 µM |
| CC(C)=CCC/C(C)=C/CC/C(C)=C/CSC[C@H](NC(=O)CCCCCN1CCN(C)CC1)C(=O)NC1CCCCCC1 | 2.36 µM |
| COc1cccc2c1nc(C(F)F)n2-c1nc(-c2ccc(NS(=O)(=O)CCN(C)C)cc2)nc(N2CCOCC2)n1 | 0.0261 µM |

====

// TGI lookup, one value per entry
# Test system: SNB-75 CNS
# Assay Remarks: NCI tumour cell line growth inhibition, 48 h

| Compound | Measured On | TGI |
| --- | --- | --- |
| CC1(C)CNC(=O)C2(CCCO2)CNC(C)(C)CNC(=O)C2(CCCO2)CN1 (stereo not drawn) | SNB-75 CNS | > 10 µM |
| CC(CN1NC12CCCC2)N1NC12CCCC2 (stereo not drawn) | SNB-75 CNS | > 100 µM |
| CC(=O)OCC1C(=O)OCC1C(=O)N1Cc2cc3ccccc3nc2C1 (stereo not drawn) | SNB-75 CNS | 14.9 µM |
| Nc1ccc(/C=C/c2ccc3ncccc3c2)cc1 | SNB-75 CNS | > 100 µM |
| CCCCCCCCCCCCCCCCOCC(COP(=O)(O)OCC1OC(n2cc(CC)c(=O)[nH]c2=O)CC1O)OC(=O)CCCCCCCCCCCCCCC (stereo not drawn) | SNB-75 CNS | > 100 µM |
| CN1CCN(Cc2ccc(NC(=O)c3cncc(C#Cc4cnc(N)c5ncccc45)c3)cc2C(F)(F)F)CC1 | SNB-75 CNS | 1.48 µM |
| Clc1ccc(Cc2nc3ccccc3o2)cc1 | SNB-75 CNS | 91.2 µM |
| Cc1cccc2cc(/C=C/C(=O)/C=C/c3ccc(Cl)cc3)c(=O)[nH]c12 | SNB-75 CNS | > 100 µM |

====

# Tested on: HOP-92 NSCLC
# Assay Remarks: NCI tumour cell line growth inhibition, 48 h

| Compound | TGI |
| --- | --- |
| c1ccc(-c2c(-c3ccccc3)[n+](Cc3ccc4ccccc4c3)cn2Cc2ccc3ccccc3c2)cc1 | 1.26 µM |
| O=C1Cc2c(-c3cccs3)cc(-c3ccccc3)nc2-c2ccccc2N1 | > 100 µM |
| O=C1CSC(c2c[nH]c3ccccc23)N1c1cccc(Cl)c1 (stereo not given) | > 100 µM |
| COC(=O)C(Cc1ccccc1)NC(=O)CSc1nnc(COc2ccc(Cl)cc2)n1-c1ccccc1 (stereo not given) | 76.7 µM |
| COc1nc(NC2OC(COC(C)=O)C(OC(C)=O)C(OC(C)=O)C2OC(C)=O)c(N=CC=Nc2c(NC3OC(COC(C)=O)C(OC(C)=O)C(OC(C)=O)C3OC(C)=O)nc(OC)[nH]c2=O)c(=O)[nH]1 (stereo not given) | > 100 µM |
| O=c1nc2n(-c3cccc(Cl)c3)c3ccc([N+](=O)[O-])cc3cc-2c(=O)[nH]1 | 24.7 µM |
| CC(C)=CCc1cc2c(cc1O)C1=C(C(=O)C3=C(NCCS3(=O)=O)C1=O)C(C=C(C)C)O2 (stereo not given) | > 16.7 µM |
| CC(CN1NC12CCCC2)N1NC12CCCC2 (stereo not given) | > 100 µM |
| CCOc1ccc(/C=C2\N=C(c3ccccc3)OC2=O)cc1 | > 100 µM |
| CC1CCCCCC(=O)c2c(O)cc(O)cc2CC(=O)O1 (stereo not given) | > 100 µM |
| O=C(O)C(Cc1cc(I)c(O)c(I)c1)C1CCCCC1 (stereo not given) | > 100 µM |
| CCN1CCN(CCC(=O)Nc2cccc(-n3cc(-c4ccncc4)c(-c4ccc(Cl)c(OC)c4)n3)c2)CC1 | 6.43 µM |
| Cc1cccc2cc(/C=C/C(=O)/C=C/c3ccc(Cl)cc3)c(=O)[nH]c12 | > 100 µM |
| Cc1cccc(Nc2nc3ccccc3nc2NS(=O)(=O)c2ccc(N)cc2)c1 | > 100 µM |
| CCOC(=O)c1nc2ccccc2nc1Oc1cc(OC)cc(OC)c1 | > 100 µM |
